This collection of values is drawn from ChEMBL document CHEMBL1201862.

Tested on: NCI-H522
procedure_summary: NCI tumour cell line growth inhibition, 48 h
Activity calls are given as the source filed them. Cut-off read from the data, not from the text of the source: active = GI50 up to about 1.1 µM and inactive = higher.
assay_readout: GI50

Field: example entries. Status: answers known.
{"columns": ["compound", "assay_readout", "meas_value"],
 "data": [
  ["O=C(NC1C/C(=N/O)c2c(Br)sc(Br)c21)C(F)(F)F (stereo unspecified)", "GI50", "26.1 µM (inactive)"],
  ["COc1cc2[nH]c3c(c2cc1OC)CCN[C@@]31CC[C@@]2(CC3c4c(cc(OC)c(O)c42)CCN3C)C[C@@H]1OC (stereo partly specified)", "GI50", "29.2 µM (inactive)"],
  ["NNC(=O)/C(=C/c1ccc(Cl)cc1Cl)NC(=O)c1ccccc1", "GI50", "> 100 µM (inactive)"],
  ["C/C(CC(=O)Nc1cccc([N+](=O)[O-])c1)=N/NC(N)=S", "GI50", "> 100 µM (inactive)"],
  ["Oc1c2cccc1Cc1cccc3c1OCCOCCOCCOCCOc1c(cccc1Cc1cccc(c1O)C3)C2", "GI50", "18.5 µM (inactive)"]
]}

Now consider the entry below.
Sample N/C(=N\O)N/N=C/c1ccc2c(c1)OCO2 , system: NCI-H522. Its GI50 is 38.5 µM (inactive)

---

In this section, each of the compounds is paired with its reported GI50.
Tested on: HCC 2998
procedure_summary: NCI tumour cell line growth inhibition, 48 h
Activity calls are given as the source filed them. Cut-off read from the data, not from the text of the source: active = GI50 up to about 1.1 µM and inactive = higher.

Field: example entries. Status: answers known.
{"columns": ["compound", "GI50"],
 "data": [
  ["CCOC(=O)NC(=O)c1cn(CCN2CCN(C(=O)NCCCCCCNC(=O)N3CCN(CCn4cc(C(=O)NC(=O)OCC)c(=O)[nH]c4=O)CC3)CC2)c(=O)[nH]c1=O", "> 100 µM (inactive)"],
  ["CSC1=N/C(=C\\c2ccc(C)cc2)C(=O)N1", "66.2 µM (inactive)"],
  ["O=C1OCC2=C1C(c1ccc3c(c1)OCO3)c1cc3c(cc1O2)OCO3 (centres undefined)", "4.42 µM (inactive)"]
]}

Input FC(F)(F)c1ccc2nc(Nc3ccc(Cl)c(Cl)c3)c(-c3ccccc3)nc2c1 . Output GI50: 86.7 µM (inactive)

Input Oc1c(Br)cc(/C=C/c2ccnc(/C=C/c3cc(Br)c(O)c(Br)c3)c2)cc1Br . Output GI50: 25.8 µM (inactive)

Input CCSCC(=O)N1CCc2c([nH]c3ccccc23)C1=O . Output GI50: > 100 µM (inactive)

Input O=C(N/N=C/C=C/c1ccccc1)[C@H](O)[C@@H](O)C(=O)N/N=C/C=C/c1ccccc1 . Output GI50: > 100 µM (inactive)

Input C/C=C(/I)CBr . Output GI50: 15.9 µM (inactive)

Input CCCCCN(CCCCC)C(=O)[C@@H](CCC(=O)O)NC(=O)c1cc2ccccc2[nH]1 . Output GI50: 34 µM (inactive)

---

Tested on: EKVX
procedure_summary: NCI tumour cell line growth inhibition, 48 h
The source made the active and inactive calls. Cut-off read from the data, not from the text of the source: active = GI50 up to about 1.1 µM and inactive = higher.
assay_readout: GI50

Field: example entries. Status: answers known.
{"columns": ["molecule", "test_system", "meas_value"],
 "data": [
  ["O=C(NC1C/C(=N/O)c2c(Br)sc(Br)c21)C(F)(F)F (stereo not given)", "EKVX", "27 µM (inactive)"],
  ["O=C(O)/C=C\\C(=O)Nc1ccc2c(c1)C(=O)c1cc(F)ccc1-2", "EKVX", "> 100 µM (inactive)"],
  ["O=C(/C=C1\\Nc2ccccc2N\\C1=C\\C(=O)c1ccc(Cl)cc1)c1ccccc1", "EKVX", "> 100 µM (inactive)"],
  ["CS[C@]12[C@@H]3C(=O)N(C)C(=O)[C@@H]3[C@](C)(C(=O)N1C)C(=O)N2c1ccccc1", "EKVX", "> 100 µM (inactive)"],
  ["Nc1nc(N)c(N=O)c(Nc2ccc(Br)cc2)n1", "EKVX", "40.8 µM (inactive)"],
  ["CC(=O)NNc1nc(C)c(C(/C=C/c2ccc(/C=C/C(=N\\NC(=O)c3ccncc3)c3sc(NNC(C)=O)nc3C)cc2)=N/NC(=O)c2ccncc2)s1", "EKVX", "> 100 µM (inactive)"],
  ["O=C1Oc2cc3c(c4cccc1c24)O[C@H](c1ccccc1)[C@@H](c1ccccc1)[C@@H]3c1ccc(Cl)cc1", "EKVX", "> 100 µM (inactive)"],
  ["CN(C)C1(N(C)C)Oc2c(c(=O)n(C)c(=O)n2C)C(c2ccccc2)C1(F)F (stereo not given)", "EKVX", "> 100 µM (inactive)"]
]}

Sample c1ccc([P+](CC[P+](c2ccccc2)(c2ccccc2)c2ccccc2)(c2ccccc2)c2ccccc2)cc1 , system: EKVX. Its GI50 is 4.76 µM (inactive)
